Sourced from patent US8063221B2

Biological target: recombinant full-length human GSK3β (Homo sapiens, UniProt P49841)
Construct: recombinant full-length human GSK3β (Upstate); purchased Upstate
Sequence (P49841 whole entry): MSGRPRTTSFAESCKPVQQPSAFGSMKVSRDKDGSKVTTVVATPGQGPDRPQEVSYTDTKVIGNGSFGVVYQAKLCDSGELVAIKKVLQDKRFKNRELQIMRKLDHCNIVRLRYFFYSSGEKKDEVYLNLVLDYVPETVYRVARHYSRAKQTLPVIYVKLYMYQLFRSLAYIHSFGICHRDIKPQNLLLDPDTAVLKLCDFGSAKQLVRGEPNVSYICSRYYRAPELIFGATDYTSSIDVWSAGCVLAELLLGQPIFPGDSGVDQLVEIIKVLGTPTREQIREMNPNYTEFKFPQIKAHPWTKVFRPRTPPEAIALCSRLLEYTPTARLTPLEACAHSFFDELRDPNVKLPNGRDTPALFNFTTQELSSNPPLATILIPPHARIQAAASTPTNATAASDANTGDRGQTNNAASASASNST
Test: Luciferase-coupled cell-free GSK3β kinase assay
Type: biochemical
Conditions: Table 2
pIC50: −log10 of the molar value.
Measured pIC50, listed per entry.

COMPOUND | ENDPOINT LABEL | RESULT
Nc1c(F)c(NC(=O)CCc2ccccc2)c(F)c2c1c(=O)c(C(=O)O)cn2C1CC1 | pIC50 | < 6.00

*Q* Suppose we examine the compound CC1COc2c(NCCCN3CCCC3=O)c(F)c(N)c3c(=O)c(C(=O)O)cn1c23 (centres unmarked) ; what pIC50 value has been reported?
*A* > 7.00

*Q* Name the recorded pIC50 for CC1COc2c(NCCNc3cccc4ccccc34)c(F)c(N)c3c(=O)c(C(=O)O)cn1c23 (centres unmarked) .
*A* > 7.00

*Q* Give its pIC50 value. Item: `C[C@H]1COc2c(NCCCc3ccc(Cl)cc3)c(F)c(N)c3c(=O)c(C(=O)O)cn1c23`
*A* > 7.00

*Q* Would you mind telling me what pIC50 value was observed for C[C@@H]1COc2c(NCCNc3ccccn3)c(F)c(N)c3c(=O)c(C(=O)O)cn1c23 [compound 30] ?
*A* 6.00 to 6.30

*Q* May I ask what pIC50 has been recorded for `CC1(C)Cn2cc(C(=O)O)c(=O)c3c(N)c(F)c(NCCCn4ccnc4)c(c32)O1` ?
*A* 6.30 to 7.00

*Q* pIC50 lookup needed for `C[C@H]1COc2c(NCCOc3ccc(F)cc3)c(F)c(N)c3c(=O)c(C(=O)O)cn1c23` , thanks.
*A* > 7.00

*Q* Return reported pIC50; argument: `CC(C)C[C@H]1COc2c(NCCCn3cnc4ccccc43)c(F)c(N)c3c(=O)c(C(=O)O)cn1c23`
*A* > 7.00
